experiment: Primary qHTS for delayed death inhibitors of the malarial parasite plastid, 48 hour incubation; conditions: P. falciparum luciferase growth in erythrocytes; series mostly up to 28.7 µM
About 18,000 (5.8%) of roughly 310,000 compounds were called active. Inconclusive results (about 22%) are left out. Calls follow the shape of the dose curve; as a rule, active = well fitted inhibition curve with a large enough effect; inconclusive = small, poorly fitted or top-dose-only effect, or another doubt; inactive = no such curve, though single readings can be large or run the other way. The list comes from a sample in which actives are over-represented; it also holds close analogues and randomly drawn compounds.
Hello, when you answer, please use one of the following outcomes: active, inactive

Example cases with answers are listed next.
molecule=O=C(COC(=O)c1cccc(Cl)c1)NC1CCCCCCC1 category_label=inactive
molecule=COc1cc(C)cc(CN2CCC(Cc3ccccc3)CC2)c1O category_label=active
molecule=COc1ccc([C@@H]2[C@@H]3C(=O)N(C(C)(C)C)C(=O)[C@@H]3[C@]3(Cc4ccccc4)C(=O)N(c4cccc(Br)c4)C(=O)N23)cc1 category_label=active

Here is the next item to consider.
**Q:** In this assay, the call recorded for O=C1CC(NNc2ccccc2)C(=O)N1c1cccc(Cl)c1 (stereo unspecified) was what?
**A:** inactive

---

experiment: Primary qHTS for delayed death inhibitors of the malarial parasite plastid, 48 hour incubation; as to activity change, negative = inhibition: % is scaled to controls: 0 for no effect and ±100 for the full control effect; conditions: P. falciparum luciferase growth in erythrocytes; series mostly up to 28.7 µM
Screen size: about 310,000 compounds; about 18,000 (5.8%) were called active. Another 22% or so got no clear call; they are omitted. The sample holds actives, similar compounds and a random draw of the others, so the mix is not that of the screen.
Below: a set of entries, each annotated with reported activity change, negative = inhibition.

Recorded activity change, negative = inhibition, per entry:
compound="CN1c2ccc([N+](=O)[O-])cc2C(C)(C)C12C=Cc1cc(C(=O)O)ccc1O2 (stereo unspecified)" metric_name="activity change, negative = inhibition" observed_result="16.2% [at 0.00184 µM] (inactive)"
compound="CC1=C(C(N)=O)C(c2ccc(Br)cc2)n2ncnc2N1 (stereo unspecified)" metric_name="activity change, negative = inhibition" observed_result="5.11% [at 0.00184 µM] (inactive)"
compound=O=C(CNC(=O)c1cccnc1)N/N=C/c1cccnc1 metric_name="activity change, negative = inhibition" observed_result="2.56% [at 0.00184 µM] (inactive)"
compound="CCOC(=O)C1CN(S(=O)(=O)c2ccc(OC)cc2)c2cc(Cl)ccc2O1 (stereo unspecified)" metric_name="activity change, negative = inhibition" observed_result="-15.5% [at 0.00184 µM] (inactive)"
compound=O=C(O)c1c(NC(=O)N2CCCC2)sc2c1CCCC2 metric_name="activity change, negative = inhibition" observed_result="0.211% [at 0.00184 µM] (inactive)"
compound=COCCNC(=O)c1ccc(S(=O)(=O)c2ccc(Cl)cc2)c(NC(C)=O)c1 metric_name="activity change, negative = inhibition" observed_result="0.449% [at 0.00184 µM] (inactive)"
compound=COc1ccc(NC(=S)NCCN2CCC(C)CC2)cc1 metric_name="activity change, negative = inhibition" observed_result="17.2% [at 5.75 µM] (inactive)"
compound="COc1ccc(C(=O)NC(C)CCc2ccccc2)c(OC)c1 (stereo unspecified)" metric_name="activity change, negative = inhibition" observed_result="-23.8% [at 0.00184 µM] (inactive)"

**Q:** Fill in the blank: the reported activity change, negative = inhibition of Cc1coc2c1c(C)cc1oc(=O)c(CC(=O)NCC(=O)N[C@H](C(=O)O)C(C)C)c(C)c12 is ____.
**A:** -9.45% [at 0.00184 µM] (inactive)

**Q:** Okay, and CC(=O)N1CCN(CC(=O)Nc2ccc(C)c(F)c2)CC1 ?
**A:** -12.4% [at 0.00184 µM] (inactive)

**Q:** Okay, and Cc1ccccc1C(=O)Nc1ccccc1NC(=O)c1ccccc1C ?
**A:** 1.11% [at 0.00184 µM] (inactive)

Origin of measurements: PubChem BioAssay AID504832
